Each entry below carries its recorded z-score.
experiment: cell viability in Huh7 cells, primary screen, cytotoxicity control for HCV replication inhibitor project, CellTiter-Glo luminescence, basal, 48 h (AID 1143); conditions: Huh7 HCV replicon, higher = more signal, called active from +8 up or from −8 down;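 also: Huh7 hepatoma cells carrying a hepatitis C replication reporter with no stimulus; test concentration not given here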
Could you keep your reply to the number by itself?

Known results for compounds:
{"compound": "CCc1cc2c(nc1CC)CCN(CCC(C)=NOCC[C@@H]1C=C[C@H](OC(C)=O)[C@@H](COC(C)=O)O1)C2", "measured": 0.0095}
{"compound": "COc1ccc(COC(=O)NN=C2C[C@@H](O)[C@@H](O)[C@@H]3[C@@H]4C(=O)N(Cc5ccc6c(c5)OCO6)C(=O)[C@@H]4CC[C@H]23)cc1", "measured": 0.0813}
{"compound": "CC(C)[C@@H](OCc1ccccc1)[C@H](C)C=NOC[C@@H](O)[C@H]1O[C@@H]2OC(C)(C)O[C@@H]2[C@H]1O", "measured": 0.226}
{"compound": "C=CC[C@@H]1C=C[C@H](ON=C[C@@H](NS(=O)(=O)c2ccc(C)cc2)[C@H](C)C=CCC(=O)OC)[C@@H](CO)O1", "measured": 0.182}
{"compound": "CC(C)CON=C1C[C@@H](O)[C@@H](O)[C@@H]2[C@@H]3C(=O)N([C@@H](C)c4ccccc4)C(=O)[C@@H]3CC[C@@H]12", "measured": -0.192}
{"compound": "C#CCCCON=C1C[C@@H](O)[C@@H](O)[C@@H]2[C@@H]3C(=O)N(CC)C(=O)[C@@H]3CC[C@H]12", "measured": 0.0934}

Input line: Bench note: what z-score did C[C@H]1CC[C@@H](C(=O)O)N[C@@H]1c1cccc(N2CCCC2=O)c1 show?
Output line: 0.0659

Input line: Bench note: what z-score did CO[C@H]1COC(=O)CCC[C@H](C)[C@H](OC)COC(=O)CC=C[C@@H]1C show?
Output line: -1.15

Input line: Bench note: what z-score did CCOC(=O)NN=C1C[C@@H](O)[C@@H](O)[C@@H]2[C@@H]3C(=O)N(C[C@@H]4CCCO4)C(=O)[C@@H]3CC[C@H]12 show?
Output line: 0.587

Input line: Bench note: what z-score did CC(C)CON=C1C[C@@H](O)[C@@H](O)[C@@H]2[C@@H]3C(=O)N(Cc4ccccc4)C(=O)[C@@H]3CC[C@H]12 show?
Output line: -1.75

Input line: Bench note: what z-score did CC(C)=CCCC(C)=CCON=C1C[C@@H](O)[C@@H](O)[C@@H]2[C@@H]3C(=O)N(Cc4ccc5c(c4)OCO5)C(=O)[C@@H]3CC[C@@H]12 show?
Output line: -0.292

Input line: Bench note: what z-score did CC(C)=NOC[C@@H](O)[C@H]1O[C@@H]2OC(C)(C)O[C@@H]2[C@H]1O show?
Output line: 0.605

Input line: Bench note: what z-score did C#CCCCON=C1[C@H]2CCn3c(=O)n([C@@H](CC)c4ccccc4)c(=O)n3[C@H]2[C@H](O)[C@@H]2O[C@H]12 show?
Output line: 0.222

Input line: Bench note: what z-score did CO[C@@H](C(C)C)[C@@H](C)C1OC(=O)CC1O (stereo not given in full) show?
Output line: 0.265

Input line: Bench note: what z-score did CCOC(=O)[C@H](Cc1ccccc1)NC(=O)CCC1CC(OC(=O)NCc2cccc3ccccc23)CC2(CCCC(COC(=O)NCc3ccc4c(c3)OCO4)O2)O1 (stereo not given in full) show?
Output line: -0.301
